Collected pIC50 values appear next to each entry.
Target: UniProt Q15858
Assay: Patch voltage clamp electrophysiology, block of inactivated-state Nav1.7 in HEK-293 cells
Format: cell-based
Conditions: affinity for the inactivated state; HEK-293 cells with β1 subunit; held at -60 mV; read-out: NaV1.7 (IC50 class)
pIC50: −log10 of the molar value.

# Chem smiles, pIC50
rows = [
    ("O=S(=O)(Nc1ncns1)c1cc(F)c(Oc2ccc(Cl)cc2-c2cccc3nccn23)cc1F", "≥ 7.00"),
    ("Nc1nc2cc(-c3cc(Cl)ccc3Oc3cc(F)c(S(=O)(=O)Nc4ncns4)cc3F)ccc2[nH]1", "≥ 7.00"),
    ("CN(C)c1noc2ccc(-c3cc(Cl)ccc3Oc3cc(F)c(S(=O)(=O)Nc4ncns4)cc3F)cc12", "≥ 7.00"),
]

Let's switch to this compound now.
pIC50 in this record for O=c1[nH]cc(-c2cc(Cl)ccc2Oc2cc(F)c(S(=O)(=O)Nc3ncns3)cc2F)n2cncc12 : 6.00 to 7.00

* * *

Target: Nav1.7 (Homo sapiens (Human))
Sequence (Q15858 other isoform, or with tags, fused parts or gaps): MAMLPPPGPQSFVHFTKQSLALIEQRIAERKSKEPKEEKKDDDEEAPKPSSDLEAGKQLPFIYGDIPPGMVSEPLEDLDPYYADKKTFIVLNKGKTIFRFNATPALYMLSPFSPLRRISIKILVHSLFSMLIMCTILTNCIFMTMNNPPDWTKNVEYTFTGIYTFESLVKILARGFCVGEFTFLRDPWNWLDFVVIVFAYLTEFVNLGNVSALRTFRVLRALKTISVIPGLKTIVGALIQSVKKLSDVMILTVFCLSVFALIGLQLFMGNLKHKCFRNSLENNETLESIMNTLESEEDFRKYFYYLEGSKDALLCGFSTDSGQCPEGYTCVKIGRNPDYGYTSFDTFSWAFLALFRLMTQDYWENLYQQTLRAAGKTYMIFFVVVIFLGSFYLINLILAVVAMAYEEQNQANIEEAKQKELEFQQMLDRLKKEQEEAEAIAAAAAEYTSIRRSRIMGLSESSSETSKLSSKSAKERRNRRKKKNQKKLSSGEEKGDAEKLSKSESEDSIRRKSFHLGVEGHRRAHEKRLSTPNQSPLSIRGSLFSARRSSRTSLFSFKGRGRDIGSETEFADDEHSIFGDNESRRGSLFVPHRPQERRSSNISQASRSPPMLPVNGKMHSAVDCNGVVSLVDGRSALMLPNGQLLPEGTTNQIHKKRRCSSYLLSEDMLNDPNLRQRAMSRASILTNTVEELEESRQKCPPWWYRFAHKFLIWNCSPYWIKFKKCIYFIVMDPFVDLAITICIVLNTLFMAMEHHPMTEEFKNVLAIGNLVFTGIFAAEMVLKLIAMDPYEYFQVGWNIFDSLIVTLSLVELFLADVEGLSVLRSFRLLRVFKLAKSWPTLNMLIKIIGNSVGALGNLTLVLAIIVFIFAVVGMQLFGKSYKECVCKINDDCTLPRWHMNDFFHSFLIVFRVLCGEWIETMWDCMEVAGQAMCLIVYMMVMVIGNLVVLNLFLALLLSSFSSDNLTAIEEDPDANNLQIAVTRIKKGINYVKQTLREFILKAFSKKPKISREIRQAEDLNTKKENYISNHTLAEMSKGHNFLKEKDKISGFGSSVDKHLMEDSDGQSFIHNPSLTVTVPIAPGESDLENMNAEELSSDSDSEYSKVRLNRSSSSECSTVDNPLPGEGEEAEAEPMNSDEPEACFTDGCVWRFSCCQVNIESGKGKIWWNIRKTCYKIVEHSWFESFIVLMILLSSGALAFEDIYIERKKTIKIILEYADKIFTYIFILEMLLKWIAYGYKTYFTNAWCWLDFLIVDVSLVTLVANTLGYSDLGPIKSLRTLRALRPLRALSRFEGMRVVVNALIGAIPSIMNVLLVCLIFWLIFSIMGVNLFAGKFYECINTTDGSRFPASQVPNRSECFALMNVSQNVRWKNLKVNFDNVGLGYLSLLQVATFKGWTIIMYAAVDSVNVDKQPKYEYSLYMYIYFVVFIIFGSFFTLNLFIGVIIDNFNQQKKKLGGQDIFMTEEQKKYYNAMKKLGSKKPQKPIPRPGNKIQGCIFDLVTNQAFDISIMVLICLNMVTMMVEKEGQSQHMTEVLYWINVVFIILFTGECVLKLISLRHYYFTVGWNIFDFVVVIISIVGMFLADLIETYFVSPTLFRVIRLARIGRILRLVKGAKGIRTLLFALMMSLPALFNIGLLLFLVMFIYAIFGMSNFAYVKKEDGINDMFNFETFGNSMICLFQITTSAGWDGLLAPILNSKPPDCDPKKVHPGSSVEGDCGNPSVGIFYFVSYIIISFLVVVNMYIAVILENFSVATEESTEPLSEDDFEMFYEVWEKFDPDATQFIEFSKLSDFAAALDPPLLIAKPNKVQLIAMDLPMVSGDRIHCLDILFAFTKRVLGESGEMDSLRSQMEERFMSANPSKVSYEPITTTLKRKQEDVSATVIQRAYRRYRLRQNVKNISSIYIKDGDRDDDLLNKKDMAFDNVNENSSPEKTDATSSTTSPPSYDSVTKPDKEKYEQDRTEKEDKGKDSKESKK
Sequence (Q07699 19-218 partner): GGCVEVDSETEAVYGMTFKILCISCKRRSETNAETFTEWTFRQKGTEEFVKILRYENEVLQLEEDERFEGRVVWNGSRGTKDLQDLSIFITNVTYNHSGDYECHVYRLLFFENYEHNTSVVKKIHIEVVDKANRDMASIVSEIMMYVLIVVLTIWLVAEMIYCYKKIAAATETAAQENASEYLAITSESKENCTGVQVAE
Assay: Patch voltage clamp electrophysiology, block of inactivated-state Nav1.7 in HEK-293 cells
Details: affinity for the inactivated state; HEK-293 cells with β1 subunit; held at -60 mV; read-out: NaV1.7 (IC50 class)
Excerpt: Patch voltage clamp electrophysiology allows for the direct measurement and quantification of block of voltage-gated sodium channels (Nav's), and allows the determination of the time- and voltage-dependence of block which has been interpreted as differential binding to the resting, open, and inactivated states of the sodium channel (Hille, B., Journal of General Physiology (1977), 69: 497-515). […]
Reported IC50 values for the following compounds.

Past entries and their recorded results:
# Chem smiles, System name, IC50
rows = [
    ("Nc1noc2ccc(-c3cc(Cl)ccc3Oc3cc(F)c(S(=O)(=O)Nc4cscn4)cc3F)cc12", "Nav1.7 (Homo sapiens (Human))", "≤ 0.1 µM"),
    ("O=c1[nH]c2cc(-c3cc(Cl)ccc3Oc3ccc(S(=O)(=O)Nc4ncccn4)cc3F)ccc2o1", "Nav1.7 (Homo sapiens (Human))", "≤ 0.1 µM"),
]

Field IC50 (entry O=S(=O)(Nc1ncns1)c1cc(F)c(Oc2ccc(Cl)cc2-c2ncc3cnccn23)cc1F ) reads 1 to 10 µM

O=S(=O)(Nc1ncns1)c1cc(F)c(Oc2ccc(Cl)cc2-c2ccc3[nH]cnc3c2)cc1F has a reported IC50 of ≤ 0.1 µM

So for O=S(=O)(Nc1ncns1)c1cc(F)c(Oc2ccc(Cl)cc2-n2cnc3cncnc32)cc1F , the logged IC50 turned out to be 1 to 10 µM

So, O=S(=O)(Nc1ncns1)c1cc(F)c(Oc2ccc(Cl)cc2-c2ccc3nccnc3c2)cc1F ? Its IC50 was ≤ 0.1 µM

The measured IC50 associated with Nc1nc2ccc(-c3cc(Cl)ccc3Oc3cc(F)c(S(=O)(=O)Nc4ncns4)cc3F)cc2o1 reads ≤ 0.1 µM

Consider CNc1noc2ccc(-c3cc(Cl)ccc3Oc3cc(F)c(S(=O)(=O)Nc4ncns4)cc3F)cc12 . Its measured IC50 is ≤ 0.1 µM

Briefly, IC50 measured for O=S(=O)(Nc1ncns1)c1cc(F)c(Oc2ccc(Cl)cc2-c2cnc3n2CCNC3)cc1F : 0.1 to 1 µM

Entry Cc1ccc(Oc2cc(F)c(S(=O)(=O)Nc3ncns3)cc2F)c(-c2ccc3oc(=O)[nH]c3c2)c1 — recorded IC50 = ≤ 0.1 µM

Query O=S(=O)(Nc1ncns1)c1cc(F)c(Oc2ccc(Cl)cc2-c2ccc3ocnc3c2)cc1F yields IC50 of ≤ 0.1 µM

Please fill in: IC50 reported for Nc1noc2ccc(-c3cc(Cl)ccc3Oc3cc(F)c(S(=O)(=O)Nc4ncccn4)cc3F)cc12 = ≤ 0.1 µM

The compound identified as Nc1noc2ccc(-c3cc(Cl)ccc3Oc3cc(F)c(S(=O)(=O)Nc4ncns4)cc3F)cc12 registered its IC50 at ≤ 0.1 µM

Field IC50 (entry O=C1Cc2ccc(-c3cc(Cl)ccc3Oc3cc(F)c(S(=O)(=O)Nc4ncns4)cc3F)cc2N1 ) reads ≤ 0.1 µM

For record Nc1noc2ccc(-c3cc(F)ccc3Oc3cc(F)c(S(=O)(=O)Nc4ncns4)cc3F)cc12 the listed IC50 is ≤ 0.1 µM

Input Nc1cnc2ccc(-c3cc(Cl)ccc3Oc3cc(F)c(S(=O)(=O)Nc4ncns4)cc3F)cn12 . Output IC50: ≤ 0.1 µM
